Reported pKi values for the following molecules.
biological target: serotonin 2 receptor (Bos taurus); construct: evaluated using a bovine cerebral cortex membrane sample; from tissue; host or cells: bovine cerebral cortex membranes; test: Binding affinity to the serotonin 2 receptor, [3H]-ketanserin, bovine cerebral cortex membrane; conditions: negative logarithm of Ki, 3 nM [3H]-ketanserin, 25° C., 30 minutes
Give the value as a plain number.

Worked cases, answers included:
> print(dat)
                                    molecule                       systemtested  observedvalue
 1  O=C(NCCN1CCC(=C2c3ccccc3C=Cc3ccccc32)CC1)C1CCNCC1 [Compound 2]  serotonin 2 receptor (Bos taurus)            8.6
 2  O=CN1CCN(C(=O)NCCN2CCC(=C3c4ccccc4C=Cc4ccccc43)CC2)CC1 [Compound 11]  serotonin 2 receptor (Bos taurus)            8.8
 3  O=CNC1(C(=O)NCCN2CCC(=C3c4ccccc4C=Cc4ccccc43)CC2)CCCCC1 [Compound 21]  serotonin 2 receptor (Bos taurus)            7.8
 4  O=CNCCCC(=O)NCCN1CCC(=C2c3ccccc3C=Cc3ccccc32)CC1 [Compound 24]  serotonin 2 receptor (Bos taurus)            9.8
 5  CC(C)(C)OC(=O)N1CCC(C(=O)NCCN2CCC(=C3c4ccccc4C=Cc4ccccc43)CC2)CC1 [Compound 5]  serotonin 2 receptor (Bos taurus)            8.0
 6  NC1CCC(C(=O)NCCN2CCC(=C3c4ccccc4C=Cc4ccccc43)CC2)CC1 (centres unmarked) [Compound 12]  serotonin 2 receptor (Bos taurus)            8.6
 7  O=C(NCCN1CCC(=C2c3ccccc3C=Cc3ccccc32)CC1)C1CCCCN1 (centres unmarked) [Compound 9]  serotonin 2 receptor (Bos taurus)            7.8
 8  CC(C)(C)OC(=O)NCCCN1CCC(=C2c3ccccc3C=Cc3ccccc32)CC1 [Compound 31]  serotonin 2 receptor (Bos taurus)            8.8
 9  CC(=O)NCCCC(=O)NCCN1CCC(=C2c3ccccc3C=Cc3ccccc32)CC1 [Compound 25]  serotonin 2 receptor (Bos taurus)            9.2
10  CN(C)C(=O)NC1(C(=O)NCCN2CCC(=C3c4ccccc4C=Cc4ccccc43)CC2)CCCCC1 [Compound 22]  serotonin 2 receptor (Bos taurus)            8.2

Item: CC(=O)NC1(C(=O)NCCN2CCC(=C3c4ccccc4C=Cc4ccccc43)CC2)CCCCC1 [Compound 19] Test system: serotonin 2 receptor (Bos taurus) Read-out: pKi Value: ?
8.3

# get_value(readout= pKi, system= serotonin 2 receptor (Bos taurus)) for C1=Cc2ccccc2C(=C2CCN(CCCCN3CCSCC3)CC2)c2ccccc21 [Compound 42]
8.7

Provide the documented pKi with serotonin 2 receptor (Bos taurus) as the system for CC(C)(C)OC(=O)NC1(C(=O)NCCN2CCC(=C3c4ccccc4C=Cc4ccccc43)CC2)CCCCC1 [Compound 20]
8.0

* * *

target: serotonin 2 receptor (Bos taurus, UniProt Q75Z89); construct: evaluated using a bovine cerebral cortex membrane sample; from tissue; host or cells: bovine cerebral cortex membranes; experiment: Binding affinity to the serotonin 2 receptor, [3H]-ketanserin, bovine cerebral cortex membrane; conditions: negative logarithm of Ki, 3 nM [3H]-ketanserin, 25° C., 30 minutes
Sequence (Q75Z89 whole entry): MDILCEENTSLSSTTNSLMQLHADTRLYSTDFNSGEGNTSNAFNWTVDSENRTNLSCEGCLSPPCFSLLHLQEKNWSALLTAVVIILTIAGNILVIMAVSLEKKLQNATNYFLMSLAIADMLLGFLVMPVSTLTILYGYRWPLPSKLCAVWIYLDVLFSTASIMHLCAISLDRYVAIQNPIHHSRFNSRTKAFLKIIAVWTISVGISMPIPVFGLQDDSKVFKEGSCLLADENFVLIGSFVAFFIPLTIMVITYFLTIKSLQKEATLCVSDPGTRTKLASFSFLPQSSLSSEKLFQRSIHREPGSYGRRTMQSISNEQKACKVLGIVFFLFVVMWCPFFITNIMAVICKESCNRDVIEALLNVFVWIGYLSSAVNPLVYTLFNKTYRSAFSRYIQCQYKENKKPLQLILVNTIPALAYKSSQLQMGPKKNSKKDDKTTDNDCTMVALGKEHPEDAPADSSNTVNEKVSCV
Measured pKi by item
Just the number, please, no unit attached.

> print(dat)
                             compoundstring  observedvalue
1  CN(C)C(=O)NCCCC(=O)NCCN1CCC(=C2c3ccccc3C=Cc3ccccc32)CC1            9.2
2  C1=Cc2ccccc2C(=C2CCN(CCCCN3CCOCC3)CC2)c2ccccc21            8.2

What value of pKi has been recorded for this entry: CC(=O)NCC(=O)N1CCC(C(=O)NCCN2CCC(=C3c4ccccc4C=Cc4ccccc43)CC2)CC1
7.9

Record request: pKi value, item NC1(C(=O)NCCN2CCC(=C3c4ccccc4C=Cc4ccccc43)CC2)CCCCC1
8.9

meta.source: patent US20020019533A1
